Listing of entries alongside the reported inhibition of growth at 10 µM.
- method.notes: Cytotoxicity against human UACC257 cells at 10 uM after 48 hrs by SRB assay
- Format: functional
- assay.conditions: UACC-257, 48 h, read-out: GI
Express the reported value numerically, then name its unit.

Study these solved cases before continuing.
COc1ccc(-c2nc(Nc3ccc(F)cc3)nc(Nc3ccc4c(c3)nc(C)n4Cc3ccccc3)n2)cc1 ... 56.2%
Cc1nc2cc(Nc3nc(Nc4ccc(F)cc4)nc(-c4cccs4)n3)ccc2n1Cc1ccccc1 ... 42.5%
Cc1nc2cc(Nc3nc(Nc4ccc(F)cc4)nc(-c4ccc(Cl)cc4)n3)ccc2n1Cc1ccccc1 ... 31.1%
Cc1nc2cc(Nc3nc(NCCN)nc(Nc4ccc(F)cc4)n3)ccc2n1Cc1ccccc1 ... 9.53%
Cc1nc2cc(Nc3nc(Nc4ccc(F)cc4)nc(-c4ccccc4)n3)ccc2n1Cc1ccccc1 ... 18.7%
Cc1nc2cc(Nc3nc(NCCO)nc(Nc4ccc(F)cc4)n3)ccc2n1Cc1ccccc1 ... 1.2%
Cc1nc2cc(Nc3nc(Nc4ccc(O)cc4)nc(Nc4ccc(F)cc4)n3)ccc2n1Cc1ccccc1 ... 3.73%
Cc1nc2ccc(Nc3nc(NCCN)nc(Nc4ccc(F)cc4)n3)cc2n1Cc1ccccc1 ... 15.9%
Cc1nc2cc(Nc3nc(Cl)nc(Nc4ccc(F)cc4)n3)ccc2n1Cc1ccccc1 ... 10.3%

Query: Return reported inhibition of growth at 10 µM; argument: "Cc1nc2cc(Nc3nc(Nc4ccc(F)cc4)nc(Nc4ccc(F)cc4)n3)ccc2n1Cc1ccccc1"
Result: 3.11%
